system: HCT-116; test: NCI tumour cell line growth inhibition, 48 h
Active and inactive are the calls of the source. Rule as the data show it: active = GI50 up to about 1.1 µM and inactive = higher. Where a SMILES comes first, the peptide text is derived from it. The star is where a group is joined. Cbz = O=C(OCc1ccccc1)*; Bn = c1ccc(C*)cc1
Reply using exactly one outcome from active, inactive

COMPOUND	LABEL VALUE
CCOC(=O)c1c(C(F)(F)F)oc2c1ccc1nc3nonc3nc12	inactive
COC(=O)C(Cc1ccc(O)cc1)NC(=O)C(COCc1ccccc1)NC(=O)OCc1ccccc1 (centres undefined) (Cbz-Ser(Bn)-Tyr-OMe; configuration not given here)	inactive
Cn1c(=O)c2c(nc(Cc3ccccc3)n2CC(=O)O)n(C)c1=O	inactive
Nc1nc(Nc2ccccc2)sc1C(=O)c1c[nH]c2ccccc12	inactive
COc1ccccc1NC(=S)N/N=C/c1ccccn1	active

# lookup: test call for Cc1ccc(/C=c2\cc3oc(=O)c4cccc(c4-3)c2=O)cc1
inactive

# lookup: test call for COC(=O)c1ccc2c(c1)C(NC(C)=O)CCc1cc(OC)c(OC)c(OC)c1-2 (centres undefined)
active

# lookup: test call for C=C1C(=O)O[C@@H]2C[C@@H]3[C@]4(CC[C@]5(C)[C@@H]([C@H](C)CC/C=C(\C)C=O)CC[C@@]35C)C[C@]4(CCC(=O)OC)[C@H]12
active

# lookup: test call for CCc1cccc(CC)c1NC(=O)CC1SC(N)=NC1=O (centres undefined)
inactive
